- method notes: E. coli growth modulation, two-sided OD650, primary screen, E. coli filamentation project, strain DRC41, 24 h (AID 1093);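 further: MC1000 strain lacking acrAB efflux and sulA so SOS filamentation is blocked; test concentration not given here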
- test context: OD650, 24 h, called active from +8 up or from −8 down
Activity calls are given as the source filed them.
# valid calls are active, inactive; nothing else

Solved entries (count: 6):
- compound: "COc1ccc([Si](C)(C)[C@@H]2[C@@H](CCn3cc([C@H](O)c4ccccc4)nn3)O[C@]3(C(=O)N(Cc4ccc(N5CCOC5=O)cc4)c4ccccc43)[C@H]2C)cc1"
  group: "inactive"
- compound: "COCCCNC(=O)[C@]1(CCC(=O)OC(C)(C)C)N=C(c2ccc(OCCCO)cc2)O[C@@H]1c1ccccc1"
  group: "inactive"
- compound: "C[N+](C)(C)CCCC[C@@H]1NC(=O)[C@@H]2C[C@H](C(=O)O)[C@H](c3ccc(O)cc3)N2C1=O"
  group: "inactive"
- compound: "C[C@H]1ON(c2ccc(C(=O)OC(C)(C)C)cc2)[C@@H](c2ccc(O)cc2)[C@@H]1C(=O)N1C(=O)OC[C@@H]1c1ccccc1"
  group: "inactive"
- compound: "Cc1ccc(F)cc1S(=O)(=O)N[C@@H]1CCN(Cc2ccc(Oc3ccccc3)cc2)C1"
  group: "active"
- compound: "[N-]=[N+]=NCc1ccccc1C[C@@]1(C(=O)N2CCCCC2)N=C(c2ccc(OCCCO)cc2)O[C@@H]1c1ccccc1N=[N+]=[N-]"
  group: "inactive"

Continue with the next compound.
Check the results log: what was the call for CN1C(=O)C2C=CC(C(O)Cc3ccccc3)N(N(c3ccccc3)c3ccccc3)C2C1=O (configuration not stated) ? inactive
